# Method Summary: change in splice reporter luminescence, either direction, cell-based, HEK293, spliceosome inhibition project, primary screen (AID 1101);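 also: HEK293 cells carrying a splicing-competent luciferase reporter gene; test concentration not given here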
# Particulars: HEK293 splicing luciferase reporter, 24 h, higher = more signal, called active from +8 up or from −8 down
Readout Name: z-score

Compound	Readout Name	Assay Value
CC1CC/C=C\[C@H]2OC34C=CCN(Cn5nnc6ccccc65)C(=O)[C@H]3N(CCCCCCO)C(=O)[C@@H]4C2C(=O)O1 (stereo not given in full)	z-score	0.468
CCOC(=O)C1=CCC(c2cc3ccccc3[nH]2)N(CCN2CC(C(=O)OCC)=CCC2c2cc3ccccc3[nH]2)C1 (stereo not given)	z-score	-1.3
CCCCC(O)C1C=CC2C(=O)N(c3ccccc3)C(=O)C2N1Nc1ccc(C#N)cc1 (stereo not given)	z-score	0.12
CCC(CC)C(O)C1C=CC2C(=O)N(c3ccccc3)C(=O)C2N1Nc1ccccc1F (stereo not given)	z-score	-0.115
C=CCC(OC(C)=O)[C@@H]1[C@@H](N(Cc2cccc3ccccc23)C(=O)Cc2ccc(OC)cc2)c2cc(OCCCO)ccc2N1C(=O)c1ccc2ccccc2c1 (stereo not given in full)	z-score	-1.68
N#Cc1ccc(NN2C(C(O)C3CC=CCC3)C=CC3C(=O)N(c4ccccc4)C(=O)C32)cc1 (stereo not given)	z-score	1.6
C=CCOC(=O)[C@H]1[C@@H]2C(=O)O[C@@H](c3ccccc3)[C@@H](c3ccccc3)N2[C@@H](c2ccc(OCCOC(=O)[C@@H]3C[C@@H]4C(=O)N[C@@H](CCCC[N+](C)(C)C)C(=O)N4[C@@H]3c3ccc(O)cc3)cc2)[C@]12C(=O)Nc1ccc(I)cc12	z-score	-0.21
C#CCN1[C@@H](Cc2ccccc2)C(=O)O[C@H](Cc2ccccc2)[C@@H]1/C=C/C1CC1	z-score	-0.29
COC(=O)[C@@]1(Cc2ccc(F)cc2)[C@H]2c3cc(C(=O)N4CCCC4)n(Cc4ccccn4)c3C[C@H]2CN1C(=O)c1ccccc1	z-score	-1.88
COC(=O)[C@@]1(Cc2ccc(F)cc2)[C@H]2c3cc(C(=O)N4CCCC4)n(Cc4cc(F)cc5c4OCOC5)c3C[C@H]2CN1C(=O)c1ccccc1	z-score	-0.844
C=C(COC)C(=O)CC[C@H](OC(=O)c1cccnc1)c1ccc(OCCO)cc1	z-score	-0.319
COc1ccc(C(O)C2C=CC3C(=O)N(C)C(=O)C3N2N(c2ccccc2)c2ccccc2)cc1 (stereo not given)	z-score	1.09
COc1ccc([Si](C)(C)[C@@H]2[C@@H](CC(=O)N3Cc4ccccc4C[C@H]3CO)O[C@]3(C(=O)N(Cc4cccc(N5CCOC5=O)c4)c4ccccc43)[C@H]2C)cc1	z-score	-0.589
COc1ccccc1CN1C(=O)c2ccccc2[C@](Cc2ccccc2I)(C(=O)NCC(C)C)[C@@H]1c1ccc(CO)cc1	z-score	0.0236
N#Cc1ccc(-c2cccc(=O)o2)cc1	z-score	0.862

The values you see were collected from PubChem BioAssay.
